Molecular target: F508delCFTR (Homo sapiens, UniProt P13569, DEL508-508)
Construct: expressed in transfected cells; host or cells: CFBE41o- human lung-derived epithelial cells (CFBE41o-F508delCFTR-HRP), doxycycline-inducible
Sequence (P13569 with tags, fused parts or gaps DEL508-508): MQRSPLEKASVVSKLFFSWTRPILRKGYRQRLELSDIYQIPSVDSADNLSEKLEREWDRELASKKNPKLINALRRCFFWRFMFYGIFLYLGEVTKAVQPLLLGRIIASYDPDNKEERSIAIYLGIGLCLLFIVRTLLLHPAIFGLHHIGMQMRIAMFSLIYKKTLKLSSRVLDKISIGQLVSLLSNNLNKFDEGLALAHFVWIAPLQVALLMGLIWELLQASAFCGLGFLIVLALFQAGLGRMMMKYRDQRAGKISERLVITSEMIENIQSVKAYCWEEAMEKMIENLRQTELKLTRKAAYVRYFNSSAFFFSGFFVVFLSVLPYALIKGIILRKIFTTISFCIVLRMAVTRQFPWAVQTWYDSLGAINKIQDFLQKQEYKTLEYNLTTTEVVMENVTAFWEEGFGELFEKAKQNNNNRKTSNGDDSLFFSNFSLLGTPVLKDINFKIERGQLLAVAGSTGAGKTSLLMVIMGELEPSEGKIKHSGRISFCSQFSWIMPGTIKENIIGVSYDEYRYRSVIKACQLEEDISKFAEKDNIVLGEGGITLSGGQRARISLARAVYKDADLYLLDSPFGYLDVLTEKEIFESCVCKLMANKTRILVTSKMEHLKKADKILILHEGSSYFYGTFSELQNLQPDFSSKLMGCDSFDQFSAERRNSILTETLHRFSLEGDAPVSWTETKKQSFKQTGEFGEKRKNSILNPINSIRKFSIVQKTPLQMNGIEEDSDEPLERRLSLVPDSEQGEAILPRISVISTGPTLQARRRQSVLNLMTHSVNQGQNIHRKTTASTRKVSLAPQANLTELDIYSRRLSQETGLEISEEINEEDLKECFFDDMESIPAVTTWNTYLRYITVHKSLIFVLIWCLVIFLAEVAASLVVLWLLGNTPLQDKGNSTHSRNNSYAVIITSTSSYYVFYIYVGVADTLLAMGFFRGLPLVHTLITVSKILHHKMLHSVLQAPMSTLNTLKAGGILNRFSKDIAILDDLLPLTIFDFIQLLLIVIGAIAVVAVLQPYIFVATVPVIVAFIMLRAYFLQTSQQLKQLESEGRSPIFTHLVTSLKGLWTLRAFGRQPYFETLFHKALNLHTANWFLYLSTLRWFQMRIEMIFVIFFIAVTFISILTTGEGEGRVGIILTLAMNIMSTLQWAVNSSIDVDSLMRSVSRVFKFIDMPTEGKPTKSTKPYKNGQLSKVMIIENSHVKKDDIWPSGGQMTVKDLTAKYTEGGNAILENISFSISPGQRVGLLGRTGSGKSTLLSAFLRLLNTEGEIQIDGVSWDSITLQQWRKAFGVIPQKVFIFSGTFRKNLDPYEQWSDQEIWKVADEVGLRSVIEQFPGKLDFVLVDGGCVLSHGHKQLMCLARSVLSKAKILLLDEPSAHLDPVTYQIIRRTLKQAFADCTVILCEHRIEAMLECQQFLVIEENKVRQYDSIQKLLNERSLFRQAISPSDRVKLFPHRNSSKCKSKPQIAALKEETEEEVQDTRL
Assay: Cell Surface Expression-Horse Radish Peroxidase (CSE-HRP) assay, test compound without co-corrector;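 on Emax: percent of on-plate 2 µM positive control corrector response over DMSO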
Assay type: cell-based
Conditions: maximum at any tested concentration, normalized to positive control, without co-corrector
recorded-metric: Emax

Reported Emax for CCC1(C(=O)NS(=O)(=O)c2ccc(Br)c3ccccc23)CCc2c(Cl)cccc21 (centres unmarked) : what is it?
< 50%

Also check Cc1ccccc1S(=O)(=O)NC(=O)C1CCc2c(-c3cccnc3C)cccc21 (centres unmarked)
< 50%

Repeat for the following molecule: COc1cccc2c1CCC2C(=O)NS(=O)(=O)c1ccc(N2CCN(CC[C@@H]3OCCc4ccccc43)CC2)cc1 (some centres unmarked)
< 50%

Next molecule up: COc1ccc(C#N)c2c1C(C(=O)NS(=O)(=O)c1cccc3ccccc13)CC2 (centres unmarked)
≥ 150%

Further, for O=C(NS(=O)(=O)c1cccc2ccccc12)C1(CC2CC2)CCc2c(Cl)cccc21 (centres unmarked) ?
≥ 150%

What do you have for CCC1(C(=O)NS(=O)(=O)c2cccc3nccnc23)CCc2c(Cl)cccc21 (centres unmarked) ?
< 50%

# repeat for COc1ccc(-c2cccc3c2CCC3C(=O)NS(=O)(=O)c2ccccc2C)cn1 (centres unmarked)
< 50%

Item: Cc1ccccc1S(=O)(=O)NC(=O)[C@]1(C)CCc2ccc(Cl)cc21
< 50%

* * *

Target: F508delCFTR (Homo sapiens, UniProt P13569, DEL508-508)
Construct: expressed in transfected cells; host or cells: CFBE41o- human lung-derived epithelial cells (CFBE41o-F508delCFTR-HRP), doxycycline-inducible
Test: Cell Surface Expression-Horse Radish Peroxidase (CSE-HRP) assay, test compound without co-corrector
Format: cell-based
Conditions: test compound without co-corrector
pEC50: −log10 of the molar value.
recorded-metric: pEC50

# query: pEC50 of entry CCC1(C(=O)NS(=O)(=O)c2cccc3ccccc23)Cc2cccc(OC)c21 (centres unmarked) [II-118]
5.00 to 5.52

# repeat for COc1cccc2c1CCC2C(=O)NS(=O)(=O)c1c(C)nn(C)c1C (centres unmarked) [III-11]
≤ 5.00

Entry to check: COc1cccc2c1CCC2C(=O)NS(=O)(=O)c1ccc(Cl)cc1 (centres unmarked) [III-32]
≤ 5.00

And for CC1(C(=O)NS(=O)(=O)c2ccccc2)CCc2c(Cl)cccc21 (centres unmarked) [II-1] ?
5.00 to 5.52

What about COc1ccc(-c2ccc(C)cc2F)c2c1CCCC2C(=O)NS(=O)(=O)c1cccc2ccccc12 (centres unmarked) [II-98] ?
> 5.52

* * *

Biological target: F508delCFTR (Homo sapiens, UniProt P13569, DEL508-508)
Construct: expressed in transfected cells; host or cells: CFBE41o- human lung-derived epithelial cells (CFBE41o-F508delCFTR-HRP), doxycycline-inducible
Test: Cell Surface Expression-Horse Radish Peroxidase (CSE-HRP) assay, test compound without co-corrector
Format: cell-based
Settings: test compound without co-corrector
Protocol: Cell Surface Expression-Horse Radish Peroxidase (CSE-HRP) Assay […] The % activity measured at each of the 8 test concentrations of the test compound added either without or with a co-corrector (2 μM of 3-[(2R,4R)-4-({[1-(2,2-difluoro-1,3-benzodioxol-5-yl)cyclopropyl]carbonyl}amino)-7-methoxy-3,4-dihydro-2H-chromen-2-yl]benzoic acid) was normalized to the on-plate positive control using the following formulae: […]
recorded-metric: EC50

Given the compound O=C(NS(=O)(=O)c1cccc2ccccc12)C1CCCc2cccc(Cl)c21 (centres unmarked) , what is its reported EC50?
3 to 10 µM

Next compound up: COc1ccc(C2CCC2)c2c1[C@@H](C(=O)NS(=O)(=O)c1cccc3ncccc13)C2 (single isomer, unassigned)
3 to 10 µM

Now the same for COc1ccc(C2CCC2)c2c1[C@H](C(=O)NS(=O)(=O)c1cccc3ncc(C)n13)C2
3 to 10 µM

Please do the same for COc1cccc2c1[C@@H](C(=O)NS(=O)(=O)c1cccc3ncccc13)CC2(C)C as well.
3 to 10 µM

Similarly, COc1ccc(C2CCC2)c2c1[C@@H](C(=O)NS(=O)(=O)c1cccc3c1CCCN3)CC2 ?
3 to 10 µM

// repeat for COc1cccc2c1CCC2C(=O)NS(=O)(=O)c1ccc2ccccc2c1 (centres unmarked) and report
≥ 10 µM

Check CCC1(C(=O)NS(=O)(=O)c2cc(C)ccc2C)CCc2c(Cl)cccc21 (centres unmarked) too.
≥ 10 µM

Query COc1cccc2c1CCC2C(=O)NS(=O)(=O)c1nc2c(=O)n(C)c(=O)n(C)c2n1Cc1ccccc1 (centres unmarked) next
≥ 10 µM

* * *

Biological target: F508delCFTR (Homo sapiens, UniProt P13569, DEL508-508)
Construct: expressed in transfected cells; host or cells: CFBE41o- human lung-derived epithelial cells (CFBE41o-F508delCFTR-HRP), doxycycline-inducible
Assay: Cell Surface Expression-Horse Radish Peroxidase (CSE-HRP) assay, test compound with co-corrector;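 further: percent of 2 µM positive control corrector over DMSO; co-corrector is that same compound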
Type: cell-based
Conditions: maximum at any tested concentration, normalized to positive control, with 2 μM co-corrector
recorded-metric: Maximum % activity (with co-corrector)

COc1ccc(C(C)(C)O)c2c1C(C(=O)NS(=O)(=O)c1cccc3ccccc13)CC2 (stereo not shown): +++ (≥350)
COc1ccc(-c2ccc(C3CC3)nc2)c2c1CCCC2C(=O)NS(=O)(=O)c1cccc2ccccc12 (stereo not shown): +++ (≥350)
COc1ccc(C2CCC2)c2c1[C@H](C(=O)NS(=O)(=O)c1cccc3ncccc13)CC2: +++ (≥350)
COc1ccc(-c2ccc(C)cc2F)c2c1CCCC2C(=O)NS(=O)(=O)c1cccc2ccccc12 (stereo not shown): +++ (≥350)
COc1ncc(C2CCC2)c2c1[C@@H](C(=O)NS(=O)(=O)c1cccc3ccccc13)CCC2: +++ (≥350)

Reported Maximum % activity (with co-corrector), molecule O=C(NS(=O)(=O)c1cccc2ccccc12)C1(CO)CCc2c(Cl)cccc21 (stereo not shown) : ____
+++ (≥350)

Entry to check: COc1cccc2c1C(C(=O)NS(=O)(=O)c1cccc3ccccc13)CCC2 (stereo not shown)
+++ (≥350)

Please do the same for CCC1(C(=O)NS(=O)(=O)c2cccc3sccc23)CCc2c(Cl)cccc21 (stereo not shown) as well.
+++ (≥350)

Check CCC1(C(=O)NS(=O)(=O)c2cccc3c(Br)cccc23)CCc2c(Cl)cccc21 (stereo not shown) too.
+++ (≥350)

Do the same for COc1ccc(-c2ccc(C)nc2)c2c1CCCC2C(=O)NS(=O)(=O)c1cccc2ccccc12 (stereo not shown) please
+++ (≥350)

And the next one, COc1ccc(C2CCC2)c2c1[C@H](C(=O)NS(=O)(=O)c1cccc3ccccc13)CC2 ?
+++ (≥350)

What do we get for COc1ccc(Br)c2c1CCCC2C(=O)NS(=O)(=O)c1cccc2ncccc12 (stereo not shown) ?
+++ (≥350)

Check O=C(NS(=O)(=O)c1cccc2ccccc12)C1CCCc2c(Cl)ccc(OCCN3CCOCC3)c21 (stereo not shown) too.
+++ (≥350)

What do you have for COc1ccc(Br)c2c1[C@@H](C(=O)NS(=O)(=O)c1cccc3ncccc13)CC2 ?
+++ (≥350)

Let us now turn to COc1ccc(C(F)(F)F)c2c1[C@@H](C(=O)NS(=O)(=O)c1cccc3ncccc13)CC2
+++ (≥350)

* * *

Molecular target: F508delCFTR (Homo sapiens, UniProt P13569, DEL508-508)
Construct: expressed in transfected cells; host or cells: CFBE41o- human lung-derived epithelial cells (CFBE41o-F508delCFTR-HRP), doxycycline-inducible
Assay: Cell Surface Expression-Horse Radish Peroxidase (CSE-HRP) assay, test compound without co-corrector;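 on Emax: percent of on-plate 2 µM positive control corrector response over DMSO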
Format: cell-based
Conditions: maximum at any tested concentration, normalized to on-plate positive control, without co-corrector
For each record, write down the corresponding Emax.

Requested field: Emax. Item: COc1ccc(Br)c2c1C(C(=O)NS(=O)(=O)c1ccc(OC)c3ccccc13)CC2 (stereo not shown)
50 to 150%

Now the molecule CCC1(C(=O)NS(=O)(=O)c2cccc3c2C(=O)N(C)C3=O)CCc2c(Cl)cccc21 (stereo not shown)
< 50%

Same again, this time with COc1ccc(C(=O)N(C)C)c2c1C(C(=O)NS(=O)(=O)c1cccc3ccccc13)CC2 (stereo not shown)
< 50%

Entry COc1ccc(-c2ccc(C3CC3)nc2)c2c1C(C(=O)NS(=O)(=O)c1cccc3ccccc13)CCC2 (stereo not shown) please
50 to 150%

* * *

Biological target: F508delCFTR (Homo sapiens, UniProt P13569, DEL508-508)
Construct: expressed in transfected cells; host or cells: CFBE41o- human lung-derived epithelial cells (CFBE41o-F508delCFTR-HRP), doxycycline-inducible
Assay: Cell Surface Expression-Horse Radish Peroxidase (CSE-HRP) assay, test compound with co-corrector;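 further: percent of 2 µM positive control corrector over DMSO; co-corrector is that same compound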
Assay type: cell-based
Conditions: maximum at any tested concentration, normalized to positive control, with 2 μM co-corrector
recorded-metric: Maximum % activity (with co-corrector)

Cc1ccccc1S(=O)(=O)NC(=O)C1CCc2ccccc21 (stereo not shown) [II-11]: + (<150)
COc1cccc2c1CCC2C(=O)NS(=O)(=O)c1cc([N+](=O)[O-])ccc1C (stereo not shown) [III-30]: + (<150)
COc1cccc2c1CCC2C(=O)NS(=O)(=O)c1cc(Cl)ccc1F (stereo not shown) [III-73]: + (<150)
O=C(NS(=O)(=O)c1cccc2ccccc12)C1CCc2c(Br)ccc(OCC3CC3)c21 (stereo not shown) [Example I-55]: +++ (≥350)
COc1ccc(CC(C)C)c2c1CCCC2C(=O)NS(=O)(=O)c1cccc2ccccc12 (stereo not shown) [Example I-67]: +++ (≥350)
CCC1(C(=O)NS(=O)(=O)c2cccc(N3CCC(F)(F)C3)c2C)CCc2c(Cl)cccc21 (stereo not shown) [II-127]: +++ (≥350)
COc1ccc(Cl)c2c1[C@H](C(=O)NS(=O)(=O)c1cccc3ccccc13)CC2 [Example I-72]: +++ (≥350)
COc1ccc(Cl)c2c1C(C(=O)NS(=O)(=O)c1cccc3ccccc13)CCC2 (stereo not shown) [Example I-70]: +++ (≥350)

In the following, a different molecule is considered.
Requested read-out: Maximum % activity (with co-corrector). Entry: COCCn1cc(S(=O)(=O)NC(=O)C2CCc3c(OC)cccc32)cn1 (stereo not shown) [III-78]
+ (<150)
